experimentSummary: Plasma pharmacokinetics of SLC-0111 after single and repeated dosing
Assay type: in vivo, human
studyConditions: human, plasma, oral, 1000 mg, AUC(0-24), 1000 mg, Day 1, mean, N=3
resultType: AUC(0-t) (ng·h/mL)

{"columns": ["molecule", "valueObserved"],
 "data": [
  ["NS(=O)(=O)c1ccc(NC(=O)Nc2ccc(F)cc2)cc1 [SLC-0111]", 70000]
]}

###

experimentSummary: Plasma pharmacokinetics of SLC-0111 after single and repeated dosing
Assay type: in vivo, human
studyConditions: human, plasma, oral, Tmax, range of cohort means, Day 1, 500-2000 mg cohorts

{"columns": ["entrySmiles", "Tmax"],
 "data": [
  ["NS(=O)(=O)c1ccc(NC(=O)Nc2ccc(F)cc2)cc1", "2.46 to 6.05 h"]
]}
